Values compiled from patent US20240398767A1.

molecular target: MTDH-SND1 interaction: SND1-NLuc (human SND1 16-339aa fused via 3x GGGS linker to N-terminal firefly luciferase 1-416aa) + CLuc-MTDH (C-terminal firefly luciferase 398-550aa fused via 3x GGGS linker to human MTDH 386-407aa) (Homo sapiens, UniProt Q7KZF4); construct: CLuc (398-550)-GGGS linker-MTDH (386-407) with HA tag; cell-free split-luciferase complementation; experiment: Cell-free split-luciferase assay of MTDH-SND1 interaction disruption, multiple doses (FIG. 3E); settings: cell free (HEK293T lysates), curves fit, read-out: MTDH-SND1 interaction (split-luciferase) SND1-NLuc + CLuc-MTDH interaction domains IC50
Sequence (Q7KZF4 with tags, fused parts or gaps): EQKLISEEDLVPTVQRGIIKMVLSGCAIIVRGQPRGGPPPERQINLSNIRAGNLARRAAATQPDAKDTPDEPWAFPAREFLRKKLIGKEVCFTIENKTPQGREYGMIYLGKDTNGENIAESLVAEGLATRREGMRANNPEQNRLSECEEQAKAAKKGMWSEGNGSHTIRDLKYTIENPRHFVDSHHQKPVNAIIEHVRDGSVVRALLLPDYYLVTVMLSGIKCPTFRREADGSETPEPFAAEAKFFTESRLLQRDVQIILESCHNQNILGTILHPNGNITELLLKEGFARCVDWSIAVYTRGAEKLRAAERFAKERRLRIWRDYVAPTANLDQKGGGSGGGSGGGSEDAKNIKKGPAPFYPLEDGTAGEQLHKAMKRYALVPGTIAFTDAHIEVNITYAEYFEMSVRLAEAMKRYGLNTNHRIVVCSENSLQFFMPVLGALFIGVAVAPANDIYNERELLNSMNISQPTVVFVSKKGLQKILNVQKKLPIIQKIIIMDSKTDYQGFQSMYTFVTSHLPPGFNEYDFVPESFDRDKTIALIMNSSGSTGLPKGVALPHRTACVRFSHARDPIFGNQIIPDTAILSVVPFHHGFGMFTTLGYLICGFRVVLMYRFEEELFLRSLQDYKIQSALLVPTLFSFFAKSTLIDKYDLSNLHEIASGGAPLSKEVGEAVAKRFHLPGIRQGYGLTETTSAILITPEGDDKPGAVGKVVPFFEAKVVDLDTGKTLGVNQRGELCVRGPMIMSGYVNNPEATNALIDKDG
Sequence (Q86UE4 386-407 partner): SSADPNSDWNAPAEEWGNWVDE
endpoint: pIC50
pIC50 here: minus log base 10 of the concentration, concentration in moles per litre.

COc1ccc(Cl)cc1S(=O)(=O)Nc1cccn2nc(C)nc12 = 5.62
COc1ccc(NC(=O)N2CCc3c(C(=O)NC4CCN(C)CC4)cccc32)cc1 = 4.29
COc1ccc(NC(=O)N2CCc3c(C(=O)N(C)C)cccc32)cc1 = 5.34

molecule CNC(=O)c1cccc2c1CCN2C(=O)Nc1ccc(OC)cc1 , pIC50 observed: 5.31

molecule COc1ccc(Cl)cc1S(=O)(=O)Nc1cccn2ncnc12 , pIC50 observed: 5.03

molecule COc1ccc(NC(=O)N2CCc3c(C(=O)NC4CCN(C5CC5)CC4)cccc32)cc1 , pIC50 observed: 4.84

molecule COc1ccc(Cl)cc1S(=O)(=O)Nc1cccn2cnnc12 , pIC50 observed: 5.07

molecule COc1ccc(Cl)cc1S(=O)(=O)Nc1cccn2c(C3CCC3)nnc12 , pIC50 observed: 4.83

* * *

target: MTDH-SND1 interaction (Homo sapiens, UniProt Q7KZF4); construct: crude cleared lysates, each fusion expressed separately and the lysates pre-mixed; experiment: Cell-free split-luciferase (Split-luc) assay, SND1-NLuc + CLuc-MTDH; details: split-luc assay in various concentrations
Sequence (Q7KZF4 with tags, fused parts or gaps): as the sequence (Q7KZF4 with tags, fused parts or gaps) above
pIC50: −log10 of the molar value.
Recorded measurements of pIC50, one per entry

COc1ccc(Cl)cc1S(=O)(=O)Nc1cccn2c(C3CCC3)nnc12 [Analog C26] = > 4.70

Recorded pIC50 for COc1ccc(NC(=O)N2CCc3c(C(=O)NC4CCN(C)CC4)cccc32)cc1 [Analog C32] on MTDH-SND1 interaction (Homo sapiens, UniProt Q7KZF4) was > 4.70
